assay: Single dose AR-42 plasma and tissue pharmacokinetics in mouse; assay type: in vivo; conditions: male, mouse, in vivo; single oral dose 10 mg/kg; remained above for 4 hours; read-out: gastrocnemius muscle concentrations

{"columns": ["smiles.code", "concentration at 4 h"],
 "data": [
  ["CC(C)[C@H](C(=O)Nc1ccc(C(=O)NO)cc1)c1ccccc1", "> 700 nM"]
]}

Where these numbers come from: patent US11529323B2
